Provenance of the data: patent US10968215B2

target: PRC2 complex (EZH2/EED/SUZ12/RbAp48/AEBP2) (Homo sapiens (Human), UniProt Q15910); test: Activity of a compound to PRC2 complex (EZH2 wild type), ELISA; settings: class symbols
Sequence (Q15910 whole entry): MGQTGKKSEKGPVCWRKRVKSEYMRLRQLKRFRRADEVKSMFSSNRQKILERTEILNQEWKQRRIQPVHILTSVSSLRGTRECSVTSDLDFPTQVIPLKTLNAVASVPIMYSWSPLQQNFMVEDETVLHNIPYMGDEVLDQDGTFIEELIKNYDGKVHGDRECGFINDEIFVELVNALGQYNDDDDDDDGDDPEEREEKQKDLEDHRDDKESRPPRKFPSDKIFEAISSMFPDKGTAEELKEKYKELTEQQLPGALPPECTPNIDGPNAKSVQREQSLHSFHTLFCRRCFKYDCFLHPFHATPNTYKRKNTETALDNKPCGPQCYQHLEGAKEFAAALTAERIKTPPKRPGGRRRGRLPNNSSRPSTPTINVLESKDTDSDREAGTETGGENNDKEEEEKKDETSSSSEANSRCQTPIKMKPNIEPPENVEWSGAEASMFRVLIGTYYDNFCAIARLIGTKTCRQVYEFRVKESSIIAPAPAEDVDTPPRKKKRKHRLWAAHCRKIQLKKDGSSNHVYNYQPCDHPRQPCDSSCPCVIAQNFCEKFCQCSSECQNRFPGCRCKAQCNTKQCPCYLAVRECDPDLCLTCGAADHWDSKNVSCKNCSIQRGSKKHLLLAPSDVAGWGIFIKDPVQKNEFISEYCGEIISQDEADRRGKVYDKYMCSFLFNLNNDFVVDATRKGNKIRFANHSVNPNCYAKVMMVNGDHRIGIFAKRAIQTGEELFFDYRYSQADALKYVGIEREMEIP
Sequence (O75530 whole entry partner): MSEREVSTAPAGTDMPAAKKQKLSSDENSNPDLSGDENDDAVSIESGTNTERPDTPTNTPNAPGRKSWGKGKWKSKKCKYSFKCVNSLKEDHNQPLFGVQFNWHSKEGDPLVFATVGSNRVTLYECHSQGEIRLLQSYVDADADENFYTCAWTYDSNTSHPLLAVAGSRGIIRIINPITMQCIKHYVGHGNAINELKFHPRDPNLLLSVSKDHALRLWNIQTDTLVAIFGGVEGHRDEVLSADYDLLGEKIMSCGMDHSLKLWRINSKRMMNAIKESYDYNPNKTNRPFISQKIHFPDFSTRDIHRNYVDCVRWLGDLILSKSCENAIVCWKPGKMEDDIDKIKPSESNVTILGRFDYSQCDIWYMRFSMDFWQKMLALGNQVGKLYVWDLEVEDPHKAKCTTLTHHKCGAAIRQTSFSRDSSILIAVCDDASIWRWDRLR
Sequence (Q15022 whole entry partner): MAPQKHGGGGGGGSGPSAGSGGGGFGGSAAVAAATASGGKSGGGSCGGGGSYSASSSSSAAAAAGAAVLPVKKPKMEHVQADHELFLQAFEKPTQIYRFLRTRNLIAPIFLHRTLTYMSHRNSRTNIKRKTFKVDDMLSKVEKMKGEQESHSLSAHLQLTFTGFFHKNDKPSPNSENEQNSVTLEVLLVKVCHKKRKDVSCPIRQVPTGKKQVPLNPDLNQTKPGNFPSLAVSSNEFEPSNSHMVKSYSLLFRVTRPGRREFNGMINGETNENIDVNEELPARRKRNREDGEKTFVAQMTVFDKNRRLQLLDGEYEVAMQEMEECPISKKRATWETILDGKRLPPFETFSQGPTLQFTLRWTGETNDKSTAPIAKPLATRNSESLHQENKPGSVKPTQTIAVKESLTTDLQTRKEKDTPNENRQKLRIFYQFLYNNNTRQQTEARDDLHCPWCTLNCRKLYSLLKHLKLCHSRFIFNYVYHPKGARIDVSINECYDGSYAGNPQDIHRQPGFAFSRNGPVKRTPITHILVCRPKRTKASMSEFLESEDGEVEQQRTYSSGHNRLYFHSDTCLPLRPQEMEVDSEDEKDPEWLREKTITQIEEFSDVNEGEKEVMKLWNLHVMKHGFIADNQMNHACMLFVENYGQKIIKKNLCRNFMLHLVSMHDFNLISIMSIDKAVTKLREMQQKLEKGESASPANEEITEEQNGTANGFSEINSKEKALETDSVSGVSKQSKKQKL
Sequence (Q09028 whole entry partner): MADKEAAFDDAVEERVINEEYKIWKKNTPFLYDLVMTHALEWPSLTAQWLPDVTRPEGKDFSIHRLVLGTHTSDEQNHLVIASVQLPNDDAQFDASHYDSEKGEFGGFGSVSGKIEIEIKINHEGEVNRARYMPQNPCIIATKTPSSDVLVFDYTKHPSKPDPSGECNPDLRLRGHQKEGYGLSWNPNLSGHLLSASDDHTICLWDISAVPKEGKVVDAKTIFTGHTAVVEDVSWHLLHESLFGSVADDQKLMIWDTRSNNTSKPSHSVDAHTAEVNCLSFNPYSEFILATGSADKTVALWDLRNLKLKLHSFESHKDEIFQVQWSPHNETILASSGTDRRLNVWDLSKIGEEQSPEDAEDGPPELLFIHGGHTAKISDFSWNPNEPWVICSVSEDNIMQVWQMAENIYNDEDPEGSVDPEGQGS
Sequence (Q6ZN18 whole entry partner): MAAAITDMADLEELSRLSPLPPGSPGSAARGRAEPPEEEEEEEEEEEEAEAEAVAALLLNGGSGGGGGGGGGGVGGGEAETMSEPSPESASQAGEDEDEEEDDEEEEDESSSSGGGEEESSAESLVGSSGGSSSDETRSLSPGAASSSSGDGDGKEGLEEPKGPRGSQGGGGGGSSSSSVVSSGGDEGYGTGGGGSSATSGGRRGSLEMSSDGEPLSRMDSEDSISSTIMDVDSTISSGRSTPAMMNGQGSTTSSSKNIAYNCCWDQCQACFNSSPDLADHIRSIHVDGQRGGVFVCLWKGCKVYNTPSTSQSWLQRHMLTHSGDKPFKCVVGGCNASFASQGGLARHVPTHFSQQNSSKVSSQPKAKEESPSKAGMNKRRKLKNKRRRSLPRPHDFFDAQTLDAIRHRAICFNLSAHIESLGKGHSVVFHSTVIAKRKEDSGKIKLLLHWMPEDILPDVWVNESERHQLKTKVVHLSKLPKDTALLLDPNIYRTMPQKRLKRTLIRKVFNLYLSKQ
outcome measure: IC50

Tell me reported IC50 for Cc1cc(C)c(CNC(=O)c2cc3cccn3c(C(C)OCc3cccc(F)c3)c2C)c(=O)[nH]1 (stereo not drawn) , tested with PRC2 complex (EZH2/EED/SUZ12/RbAp48/AEBP2) (Homo sapiens (Human), UniProt Q15910).
100 to 1000 nM

Tell me reported IC50 for Cc1cc(C)c(CNC(=O)c2cc3cc(Br)cn3c(N(C)C3CCOCC3)c2C)c(=O)[nH]1 , tested with PRC2 complex (EZH2/EED/SUZ12/RbAp48/AEBP2) (Homo sapiens (Human), UniProt Q15910).
< 100 nM

Tell me reported IC50 for Cc1cc(C)c(CNC(=O)c2cc3cccn3c(C(C)OCc3ccc(F)cc3)c2C)c(=O)[nH]1 (stereo not drawn) , tested with PRC2 complex (EZH2/EED/SUZ12/RbAp48/AEBP2) (Homo sapiens (Human), UniProt Q15910).
100 to 1000 nM
